METHOD_SUMMARY: Selectivity index, ratio of cytotoxicity against CHO cells to IC50 for Plasmodium falciparum K1
Assay type: toxicity, cell-based
CONDITION_NOTES: hamster, read-out: Selectivity Index
TEST_READOUT: selectivity ratio

INSERT INTO assay_data (smiles_notation, test_readout, endpoint_result) VALUES
  ('CC(C)c1cc2c(cc1O)[C@@]1(C)CCCC(C)(C)[C@@H]1CC2', 'selectivity ratio', '> 65');

* * *

METHOD_SUMMARY: Selectivity index, ratio of cytotoxicity against rat L6 cells to IC50 for Plasmodium falciparum K1
Type: toxicity, cell-based
CONDITION_NOTES: read-out: Selectivity Index
TEST_READOUT: selectivity ratio

INSERT INTO assay_data (compound, endpoint_result) VALUES
  ('CC(C)c1cc2c(cc1O)[C@@]1(C)CCCC(C)(C)[C@@H]1CC2 [FERRUGINOL]', 15.6);

* * *

Some compounds, each annotated with its measured selectivity ratio.
METHOD_SUMMARY: Selectivity index, ratio of cytotoxic EC50 against human cells to EC50 for Plasmodium falciparum K1
CONDITION_NOTES: human cells (cell line not named)
TEST_READOUT: selectivity ratio

INSERT INTO assay_data (smiles_notation, endpoint_result) VALUES
  ('CC(C)c1cc2c(cc1O)[C@@]1(C)CCC[C@@](C)(CN3C(=O)c4ccccc4C3=O)[C@@H]1CC2', '> 6.3'),
  ('CC(=O)c1cc2c(cc1C(C)C)CC[C@H]1[C@](C)(CN3C(=O)c4ccccc4C3=O)CCC[C@]21C', '> 124'),
  ('CC(C)c1cc2c(cc1O)[C@@]1(C)CCCC(C)(C)[C@@H]1CC2', 8.6);

* * *

METHOD_SUMMARY: Selectivity index, ratio of cytotoxicity against CHO cells to IC50 for Plasmodium falciparum D10
Type: toxicity, cell-based
CONDITION_NOTES: hamster, read-out: Selectivity Index
TEST_READOUT: selectivity ratio

INSERT INTO results (smiles_notation, endpoint_result) VALUES
  ('CC(C)c1cc2c(cc1O)[C@@]1(C)CCCC(C)(C)[C@@H]1CC2', '> 65');

* * *

METHOD_SUMMARY: Selectivity index, ratio of cytotoxic EC50 against human cells to EC50 for Plasmodium falciparum 3D7
CONDITION_NOTES: human cells (cell line not named)
TEST_READOUT: selectivity ratio

INSERT INTO measurements (smiles_notation, test_readout, endpoint_result) VALUES
  ('CC(C)c1ccc2c(c1)CC[C@H]1[C@](C)(CN3C(=O)c4ccccc4C3=O)CCC[C@]21C', 'selectivity ratio', '> 18.4'),
  ('CC(=O)Oc1cc2c(cc1C(C)C)CC[C@H]1[C@](C)(CN3C(=O)c4ccccc4C3=O)CCC[C@]21C', 'selectivity ratio', '> 12'),
  ('CC(C)c1cc2c(cc1O)[C@@]1(C)CCC[C@@](C)(CN)[C@@H]1CC2', 'selectivity ratio', 2.6),
  ('CC(C)c1cc2c(cc1O)[C@@]1(C)CCCC(C)(C)[C@@H]1CC2', 'selectivity ratio', 4.6),
  ('CC(=O)c1cc2c(cc1C(C)C)CC[C@H]1[C@](C)(CN3C(=O)c4ccccc4C3=O)CCC[C@]21C', 'selectivity ratio', '> 290');

* * *

METHOD_SUMMARY: Selectivity index, ratio of cytotoxicity against human HepG2 cells to IC50 for Plasmodium falciparum K1
Assay type: toxicity, cell-based
CONDITION_NOTES: read-out: Selectivity Index
TEST_READOUT: selectivity ratio

INSERT INTO assay_data (smiles_notation, endpoint_result) VALUES
  ('CC(C)c1cc2c(cc1O)[C@@]1(C)CCCC(C)(C)[C@@H]1CC2', '> 65');
